Collected IC50 values appear next to each entry.
Tested on: HCT-116
Assay: Cytotoxicity against human HCT116 cells by MTT assay
Format: functional, cell-based
All answers are understood in µM, so give the number only.

compound	unitName	IC50
CCn1cc(C(=O)Nc2ccc(OC(F)(F)F)cc2)c(=O)c2cc(F)c(N3CCNC(C)C3)c(F)c21 (stereo not given)	µM	2.35
CCn1cc(C(=O)Nc2cccc([N+](=O)[O-])c2)c(=O)c2cc(F)c(N3CCNC(C)C3)c(F)c21 (stereo not given)	µM	2.71
CCn1cc(C(=O)Nc2nccs2)c(=O)c2cc(F)c(N3CCNC(C)C3)c(F)c21 (stereo not given)	µM	8.66
CCn1cc(C(=O)Nc2ccc(OC)cc2)c(=O)c2cc(F)c(N3CCNC(C)C3)c(F)c21 (stereo not given)	µM	3.8
CCn1cc(C(=O)NCc2ccc(OC)cc2)c(=O)c2cc(F)c(N3CCNC(C)C3)c(F)c21 (stereo not given)	µM	1.4

In the following, a different compound is considered.
Recorded IC50 (compound CCn1cc(C(=O)Nc2cc([N+](=O)[O-])ccc2F)c(=O)c2cc(F)c(N3CCNC(C)C3)c(F)c21 (stereo not given) ): 2.6

###

Tested on: KB
Experiment: Cytotoxicity against human KB cells by MTT assay
Type: functional, cell-based
readoutType: log10 of IC50 (log10 of the value in nM)
The common logarithm of IC50 in nM is what is listed.

Recorded log10 of IC50 (compound CCn1cc(C(=O)Nc2ccccc2N)c(=O)c2cc(F)c(N3CCNC(C)C3)c(F)c21 (stereo not drawn) ): 3.45

Recorded log10 of IC50 (compound CCn1cc(C(=O)Nc2ccc(C(C)=O)cc2)c(=O)c2cc(F)c(N3CCNC(C)C3)c(F)c21 (stereo not drawn) ): 4.63

###

Collected IC50 values appear next to each entry.
Test system: HCT-116
Test: Cytotoxicity against human HCT116 cells by MTT assay
Assay type: functional, cell-based
All answers are understood in µM, so give the number only.

molecule	testedSystem	IC50, µM
CCn1cc(C(=O)Nc2ccccc2N)c(=O)c2cc(F)c(N3CCNC(C)C3)c(F)c21 (centres undefined)	HCT-116	2.7
CCn1cc(C(=O)Nc2ccc(Cl)cn2)c(=O)c2cc(F)c(N3CCNC(C)C3)c(F)c21 (centres undefined)	HCT-116	3.3

Recorded IC50 (molecule CCn1cc(C(=O)Nc2ccc(C)c([N+](=O)[O-])c2)c(=O)c2cc(F)c(N3CCNC(C)C3)c(F)c21 (centres undefined) ): 11.8

Recorded IC50 (molecule CCn1cc(-c2nc3ccc([N+](=O)[O-])cc3o2)c(=O)c2cc(F)c(N3CCNC(C)C3)c(F)c21 (centres undefined) ): 1.1

###

System: HCT-116
Test: Cytotoxicity against human HCT116 cells by MTT assay
Assay type: functional, cell-based
readoutType: IC50 (µM)
All answers are understood in µM, so give the number only.

For orientation, consider the following solved cases.
molecule	IC50 / µM
CCn1cc(C(=O)Nc2ccccc2)c(=O)c2cc(F)c(N3CCNC(C)C3)c(F)c21 (centres undefined)	12.7
CCn1cc(C(=O)Nc2ccc(C(C)=O)cc2)c(=O)c2cc(F)c(N3CCNC(C)C3)c(F)c21 (centres undefined)	4.6
CC[C@@]1(O)C(=O)OCc2c1cc1n(c2=O)Cc2cc3cc(O)ccc3nc2-1 [HYDROXYCAMPTOTHECIN]	0.3

In the following, a different molecule is considered.
Recorded IC50 (molecule CCn1cc(C(=O)Nc2ccccc2O)c(=O)c2cc(F)c(N3CCNC(C)C3)c(F)c21 (centres undefined) ): 5.37
